- System: Aeromonas hydrophila
- protocol.details: MIC against Gram-negative bacteria: Aeromonas hydrophila
- Type: cell-based
- stated.conditions: Aeromonas hydrophila; 96-well plate, 5×10^5 CFU/mL, 37° C., 10 h
Recorded MIC against A. hydrophila by entry
outcome.measure: MIC against A. hydrophila (µg/mL)

# substance, measurement.units, meas.value
data = [
    ("PRT1302 (QTSPCDQYECQNGAQCIVVQQEPTCRCPPGFAGPRCE; listed as Homo sapiens)", "µg/mL", 12.5),
    ("PRT1270 (DVDECSLDRTCDHSCINHPGTFACACNRGYTLYGFTHCG; listed as Homo sapiens)", "µg/mL", 25),
    ("PRT1315 (FGPDCQSVCSCVHGVCNHGPRGDGSCLCFAGYTGPHCD; listed as Homo sapiens)", "µg/mL", 12.5),
    ("PRT1293 (KLDFCAQDLNPCQHDSKCILTPKGFKCDCTPGYVGEHCD; listed as Homo sapiens)", "µg/mL", 50),
]

----------
- System: Serratia marcescens
- protocol.details: MIC against Gram-negative bacteria: Serratia marcescens
- Format: cell-based
- stated.conditions: Serratia marcescens; 96-well plate, 5×10^5 CFU/mL, 37° C., 10 h
Recorded MIC (μg/mL) S. marcescens by entry
outcome.measure: MIC (μg/mL) S. marcescens (µg/mL)

# substance, target.or.system, meas.value
measured = [
    ("PRT17 (AGHPCTRASGHPCLNGASCVPREAAYVCLCPGGFSGPHCE; listed as Homo sapiens)", "Serratia marcescens", 25),
    ("PRT30 (PCDCYPVGSTSRSCAPHSGQCPCRPGALGRQCNSCDSPF; listed as Homo sapiens)", "Serratia marcescens", 12.5),
    ("PRT108 (VKDHCSKHSPCQKGGTCVNMPSGPHCLCPQHLTGNHCQ; listed as Homo sapiens)", "Serratia marcescens", 12.5),
    ("PRT81 (TCGPCNCDVSKGFDPDCNKTSGECHCKENHYRPPGSPTCL; listed as Homo sapiens)", "Serratia marcescens", 50),
    ("PRT101 (DVDECSSGQHQCDSSTVCFNTVGSYSCRCRPGWKPRHGIPNNQKDTVCE; listed as Homo sapiens)", "Serratia marcescens", 12.5),
    ("PRT60 (EVDECSRPNRGGCEQRCLNTLGSYKCSCDPGYELAPDKRRCE; listed as Homo sapiens)", "Serratia marcescens", 50),
]

----------
Recorded MIC A. hydrophila by entry
- Test system: Aeromonas hydrophila
- protocol.details: MIC against Gram-negative bacteria: Aeromonas hydrophila
- Assay type: cell-based
- stated.conditions: 10 h cultivation at 37° C., 5×10^5 CFU/mL, two-fold serial dilution

# substance, MIC A. hydrophila, µg/mL
records = [
    ("PRT1133 (KAGPCEQAGSPCRNGGQCQDDQGFALNFTCRCLVGFVGARCE; listed as Homo sapiens)", 25),
    ("PRT1173 (KCIPHPGCVHGICNEPWQCLCETNWGGQLCD; listed as Homo sapiens)", 12.5),
    ("PRT1149 (APSVCQQDVCHNGGTCHAIFLSSGIVSFQCDCPLHFTGRFCE; listed as Homo sapiens)", 50),
    ("PRT1096 (QLNVCNSNPCLHGGNCEDIYSSYHCSCPLGWSGKHCE; listed as Homo sapiens)", 50),
    ("PRT1106 (NTDECASQPCLHGGLCVDGENRYSCNCTGSGFTGTHCE; listed as Homo sapiens)", 12.5),
    ("PRT1058 (DIDECQLGEHSCGENASCTNTEGGYTCMCAGRLSEPGLICP; listed as Homo sapiens)", 50),
    ("PRT1165 (NRAICRQGCSPKHGSCKLPGDCRCQYGWQGLYCD; listed as Homo sapiens)", 25),
    ("PRT1070 (RPGTCNLQCFNGGSCFLNARRQPKCRCQPRYTGDKCE; listed as Homo sapiens)", 12.5),
    ("PRT1190 (DLNYCGSHHPCTNGGTCINAEPDQYRCTCPDGYSGRNCE; listed as Homo sapiens)", 12.5),
    ("PRT1193 (DANECEGKPCLNAFSCKNLIGGYYCDCIPGWKGINCH; listed as Homo sapiens)", 12.5),
    ("PRT1068 (DINECLRFGTCSQLCNNTKGGHLCSCARNFMKTHNTCK; listed as Homo sapiens)", 50),
    ("PRT1144 (NANDCLSNPCLHGRCTELINEYPCSCDADGTSTQCK; listed as Homo sapiens)", 12.5),
    ("PRT1147 (ELDACSFKPCKNNGSCINKRENWDEQAYECVCHPPFTGKNCS; listed as Homo sapiens)", 25),
    ("PRT1126 (DVRACSSAPCANNRTCVSLDDGLYECSCAPGYSGKDCQ; listed as Homo sapiens)", 25),
    ("PRT1059 (SDSECPLSHDGYCLHDGVCMYIEALDKYACNCVVGYIGERCQ; listed as Homo sapiens)", 25),
    ("PRT1189 (ECVPYPGCVHGSCVEPWQCNCETNWGGLLCD; listed as Homo sapiens)", 25),
]

----------
- System: Proteus vulgaris
- protocol.details: MIC against Gram-negative bacteria: Proteus vulgaris
- Type: cell-based
- stated.conditions: P. vulgaris; 10 h cultivation at 37° C.; 5×10^5 CFU/mL

# substance, target.or.system, measurement.units, MIC
rows = [
    ("PRT421 (DQDECLLLPGELCQHLCINTVGSYHCACFPGFSLQDDGRTCR; listed as Homo sapiens)", "Proteus vulgaris", "µg/mL", 12.5),
    ("PRT422 (DVDECALGTHNCSEAETCHNIQGSFRCLRFECPPNYVQVSKTKCE; listed as Homo sapiens)", "Proteus vulgaris", "µg/mL", 12.5),
    ("PRT436 (DINECEHRNHTCNLQQTCYNLQGGFKCIDPIRCEEPYLRISDNRCM; listed as Homo sapiens)", "Proteus vulgaris", "µg/mL", 50),
    ("PRT302 (DIDECVEEPEICALGTCSNTEGSFKCLCPEGFSLSSSGRRCQ; listed as Homo sapiens)", "Proteus vulgaris", "µg/mL", 50),
    ("PRT419 (DIDECALPTGGHICSYRCINIPGSFQCSCPSSGYRLAPNGRNCQ; listed as Homo sapiens)", "Proteus vulgaris", "µg/mL", 12.5),
    ("PRT439 (DINECQESSPCHQRCFNAIGSFHCGCEPGYQLKGRKCM; listed as Homo sapiens)", "Proteus vulgaris", "µg/mL", 50),
    ("PRT423 (QPNTCKDNGPCKQVCSTVGGSAICSCFPGYAIMADGVSCE; listed as Homo sapiens)", "Proteus vulgaris", "µg/mL", 25),
    ("PRT431 (DIDECRTIPEACRGDMMCVNQNGGYLCIPRTNPVYRGPYSN; listed as Homo sapiens)", "Proteus vulgaris", "µg/mL", 25),
]

----------
Recorded MIC (μg/mL) K. pneumonia by entry
- Tested on: Klebsiella pneumonia
- protocol.details: MIC against Gram-negative bacteria: Klebsiella pneumonia
- Format: cell-based
- stated.conditions: K. pneumonia; 10 h cultivation at 37° C.; 5×10^5 CFU/mL

# substance, target.or.system, MIC (μg/mL) K. pneumonia
measured = [
    ("PRT889 (DVNECVSNPCQNDATCLDQIGEFQCICMPGYEGVHCE; listed as Homo sapiens)", "Klebsiella pneumonia", "12.5 µg/mL"),
    ("PRT195 (MGYNCNATTKCKGKGICNNFGNCQCFPGHRPPDCK; listed as Homo sapiens)", "Klebsiella pneumonia", "50 µg/mL"),
    ("PRT253 (DYCSQNTCLNGGKCSWTHGAGYVCKCPPQFSGKHCE; listed as Homo sapiens)", "Klebsiella pneumonia", "25 µg/mL"),
    ("PRT144 (DKKVCSSNPCQNGGTCLNLHDSFFCICPPQWKGPLCS; listed as Homo sapiens)", "Klebsiella pneumonia", "50 µg/mL"),
    ("PRT154 (DVDECSLAEKTCVRKNENCYNTPGSYVCVCPDGFEETEDACV; listed as Homo sapiens)", "Klebsiella pneumonia", "25 µg/mL"),
    ("PRT878 (ADPLCAPARNPCANGGLCTVLAPGEVGCDCSHTGFGGKFCS; listed as Homo sapiens)", "Klebsiella pneumonia", "50 µg/mL"),
    ("PRT201 (NMSSCPLDSKGKVCSGHGVCSNEATCICDFTWAGTDCS; listed as Homo sapiens)", "Klebsiella pneumonia", "12.5 µg/mL"),
    ("PRT811 (FGKNCSFSCSCQNGGTCDSVTGACRCPPGVSGTNCE; listed as Homo sapiens)", "Klebsiella pneumonia", "12.5 µg/mL"),
]

----------
- System: Serratia marcescens
- protocol.details: MIC against Gram-negative bacteria: Serratia marcescens
- Type: cell-based
- stated.conditions: 96-well plate, 5×10^5 CFU/mL, 37° C., 10 h
Recorded MIC S. marcescens by entry
outcome.measure: MIC S. marcescens

# substance, target.or.system, meas.value
data = [
    ("PRT724 (DINECEQFGTCPQHCRNTKGSYECVCADGFTSMSDRPGKRCA; listed as Homo sapiens)", "Serratia marcescens", "25 µg/mL"),
    ("PRT684 (APVLCPLICHNGGVCVKPDRCLCPPDFAGKFCQ; listed as Homo sapiens)", "Serratia marcescens", "12.5 µg/mL"),
    ("PRT670 (DVDECASRASCPTGLCLNTEGSFACSACENGYWVNEDGTACE; listed as Homo sapiens)", "Serratia marcescens", "25 µg/mL"),
    ("PRT688 (DVDECQLFRDQVCKSGVCVNTAPGYSCYCSNGYYYHTQRLECI; listed as Homo sapiens)", "Serratia marcescens", "50 µg/mL"),
    ("PRT691 (DINECDEAEAASPLCVNARCLNTDGSFRCICRPGFAPTHQPHHCA; listed as Homo sapiens)", "Serratia marcescens", "12.5 µg/mL"),
    ("PRT602 (CKCHPQGSVGSSCSRLGGQCQCKPLVVGRCCDRCSTGSYDLGHHGCHP; listed as Homo sapiens)", "Serratia marcescens", "12.5 µg/mL"),
    ("PRT632 (CKCHPLGSQEDQCHPKTGQCTCRPGVTGQACDRCQLGFFGFSIKGCRA; listed as Homo sapiens)", "Serratia marcescens", "50 µg/mL"),
    ("PRT725 (VPNLCKQICSHLCLLRPGGYSCACPQGSSFIEGSTTECD; listed as Homo sapiens)", "Serratia marcescens", "25 µg/mL"),
    ("PRT631 (CSCHPQGSVSEQMPCDPVTGQCSCLPHVTARDCSRCYPGFFDLQPGRGCRS; listed as Homo sapiens)", "Serratia marcescens", "25 µg/mL"),
    ("PRT642 (DVNECDELNNRMSLCKNAKCINTDGSYKCLCLPGYVPSDKPNYCT; listed as Homo sapiens)", "Serratia marcescens", "25 µg/mL"),
    ("PRT713 (GTNVCARDNGGCKQLCLYRGNSRRTCACAHGYLAEDGVTCL; listed as Homo sapiens)", "Serratia marcescens", "50 µg/mL"),
    ("PRT673 (DVDECLDESNCRNGVCENTRGGYRCACTPPAEYSPAQRQCL; listed as Homo sapiens)", "Serratia marcescens", "50 µg/mL"),
    ("PRT721 (DIDECTEMPFVCSQKCENVIGSYICKCAPGYLREPDGKTCR; listed as Homo sapiens)", "Serratia marcescens", "50 µg/mL"),
    ("PRT658 (DVNECELMLAVCGAALCENVEGSFLCLCASDLEEYDAQEGHCR; listed as Homo sapiens)", "Serratia marcescens", "12.5 µg/mL"),
    ("PRT692 (DVDECATGGRCQHGECANTRGGYTCVCPDGFLLDSSRSSCI; listed as Homo sapiens)", "Serratia marcescens", "50 µg/mL"),
]
